Study System: HRgpA-6H (Porphyromonas gingivalis) (UniProt P28784)
Assay Details: ELISA on coated HRgpA-6H
Readout: Ratio OD(Variant)/OD(WT)
Output spec: single numeric token, no unit.

Please review the entries below; each comes with its answer.
binder="KB001 mouse Fab FASEBA VH S30T (Fab, V domains shown) VH: EVQLKQSGPGLVAPSQSLSITCTVSGFSLTIYSVHWVRQPPGKGLEWLGMIWGGGSSDYNSALKSRLSISKDNSKSQVFLKMNSLQTDDTAMYYCARNGNFYAMDYWGQGTSVTVSS VL: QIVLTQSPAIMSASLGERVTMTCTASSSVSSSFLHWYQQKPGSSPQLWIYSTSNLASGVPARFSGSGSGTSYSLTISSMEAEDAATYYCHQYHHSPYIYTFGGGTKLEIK" assay_result=0.906
binder="KB001 mouse Fab FASEBA VH S30R (Fab, V domains shown) VH: EVQLKQSGPGLVAPSQSLSITCTVSGFSLRIYSVHWVRQPPGKGLEWLGMIWGGGSSDYNSALKSRLSISKDNSKSQVFLKMNSLQTDDTAMYYCARNGNFYAMDYWGQGTSVTVSS VL: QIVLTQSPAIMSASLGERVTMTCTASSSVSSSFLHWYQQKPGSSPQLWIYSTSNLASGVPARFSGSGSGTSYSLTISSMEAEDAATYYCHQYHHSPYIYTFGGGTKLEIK" assay_result=0.953
binder="KB001 mouse Fab FASEBA VH K64R (Fab, V domains shown) VH: EVQLKQSGPGLVAPSQSLSITCTVSGFSLSIYSVHWVRQPPGKGLEWLGMIWGGGSSDYNSALRSRLSISKDNSKSQVFLKMNSLQTDDTAMYYCARNGNFYAMDYWGQGTSVTVSS VL: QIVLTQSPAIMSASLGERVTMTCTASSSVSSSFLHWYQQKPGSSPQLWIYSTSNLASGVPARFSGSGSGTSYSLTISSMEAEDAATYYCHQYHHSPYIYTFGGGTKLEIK" assay_result=1.05
binder="KB001 mouse Fab FASEBA VH A62L (Fab, V domains shown) VH: EVQLKQSGPGLVAPSQSLSITCTVSGFSLSIYSVHWVRQPPGKGLEWLGMIWGGGSSDYNSLLKSRLSISKDNSKSQVFLKMNSLQTDDTAMYYCARNGNFYAMDYWGQGTSVTVSS VL: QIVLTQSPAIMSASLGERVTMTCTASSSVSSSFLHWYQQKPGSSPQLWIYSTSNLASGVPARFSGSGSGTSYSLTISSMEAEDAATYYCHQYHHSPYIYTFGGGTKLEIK" assay_result=0.929
binder="KB001 mouse Fab FASEBA VH Y59T (Fab, V domains shown) VH: EVQLKQSGPGLVAPSQSLSITCTVSGFSLSIYSVHWVRQPPGKGLEWLGMIWGGGSSDTNSALKSRLSISKDNSKSQVFLKMNSLQTDDTAMYYCARNGNFYAMDYWGQGTSVTVSS VL: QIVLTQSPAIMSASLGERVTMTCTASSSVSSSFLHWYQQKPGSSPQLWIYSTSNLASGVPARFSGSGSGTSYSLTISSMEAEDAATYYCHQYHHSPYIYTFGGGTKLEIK" assay_result=0.941
binder="KB001 mouse Fab FASEBA VH S61H (Fab, V domains shown) VH: EVQLKQSGPGLVAPSQSLSITCTVSGFSLSIYSVHWVRQPPGKGLEWLGMIWGGGSSDYNHALKSRLSISKDNSKSQVFLKMNSLQTDDTAMYYCARNGNFYAMDYWGQGTSVTVSS VL: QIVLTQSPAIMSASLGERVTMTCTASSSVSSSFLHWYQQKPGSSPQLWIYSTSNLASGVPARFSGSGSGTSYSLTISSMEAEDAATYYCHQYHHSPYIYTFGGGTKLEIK" assay_result=0.95
binder="KB001 mouse Fab FASEBA VH S61Q (Fab, V domains shown) VH: EVQLKQSGPGLVAPSQSLSITCTVSGFSLSIYSVHWVRQPPGKGLEWLGMIWGGGSSDYNQALKSRLSISKDNSKSQVFLKMNSLQTDDTAMYYCARNGNFYAMDYWGQGTSVTVSS VL: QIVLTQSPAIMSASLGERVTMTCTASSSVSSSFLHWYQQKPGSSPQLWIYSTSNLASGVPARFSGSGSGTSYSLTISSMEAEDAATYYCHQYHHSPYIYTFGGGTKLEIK" assay_result=1.28
binder="KB001 mouse Fab FASEBA VH A103S (Fab, V domains shown) VH: EVQLKQSGPGLVAPSQSLSITCTVSGFSLSIYSVHWVRQPPGKGLEWLGMIWGGGSSDYNSALKSRLSISKDNSKSQVFLKMNSLQTDDTAMYYCARNGNFYSMDYWGQGTSVTVSS VL: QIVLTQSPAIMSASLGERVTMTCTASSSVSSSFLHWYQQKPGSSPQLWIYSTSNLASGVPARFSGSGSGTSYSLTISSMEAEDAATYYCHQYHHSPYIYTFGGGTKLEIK" assay_result=1.05

Inquiry: For KB001 mouse Fab FASEBA VH Y59M/S571 (Fab, V domains shown) VH: EVQLKQSGPGLVAPSQSLSITCTVSGFSLSIYSVHWVRQPPGKGLEWLGMIWGGGSIDMNSALKSRLSISKDNSKSQVFLKMNSLQTDDTAMYYCARNGNFYAMDYWGQGTSVTVSS VL: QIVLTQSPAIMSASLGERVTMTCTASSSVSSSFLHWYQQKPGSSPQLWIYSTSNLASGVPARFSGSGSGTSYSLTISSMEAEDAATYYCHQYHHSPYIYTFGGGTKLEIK , what is its reported Ratio OD(Variant)/OD(WT)?
Reply text: 0.886

Inquiry: For KB001 mouse Fab FASEBA VH I31M (Fab, V domains shown) VH: EVQLKQSGPGLVAPSQSLSITCTVSGFSLSMYSVHWVRQPPGKGLEWLGMIWGGGSSDYNSALKSRLSISKDNSKSQVFLKMNSLQTDDTAMYYCARNGNFYAMDYWGQGTSVTVSS VL: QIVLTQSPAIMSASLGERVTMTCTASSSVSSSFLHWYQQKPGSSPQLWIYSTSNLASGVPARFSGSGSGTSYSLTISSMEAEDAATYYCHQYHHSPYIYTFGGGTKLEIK , what is its reported Ratio OD(Variant)/OD(WT)?
Reply text: 1.03

Data provenance: patent US20230365662A1
